Test: Stat Signaling Pathway (AID 446);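 note: ME-180 cervical cancer cells given 40 pM IL-6 alongside compound; SIE-controlled beta-lactamase reporter measured as 460/530 nm FRET emission ratio; % is set by controls: 0 for no effect and ±100 for the full control effect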
Settings: ME-180 SIE beta-lactamase reporter, IL-6 stimulated, 5 h; at 17.2 µM (top of the series)
Inconclusive results are not listed.
EXPERIMENTAL READOUT: activity, negative = inhibition (%)
The reply should be a number in %, with the unit left off.

Answered examples (2):
molecule=CCCCCN(CCCCC)C(=O)[C@H](CCC(=O)O)NC(=O)c1ccc(Cl)c(Cl)c1 experimental_readout="activity, negative = inhibition" quantitative_readout=-27.7
molecule=CCn1cc(C(=O)O)c(=O)c2cc(F)c(N3CCN[C@@H](C)C3)c(F)c21 experimental_readout="activity, negative = inhibition" quantitative_readout=9.73

Ask | For the molecule shown here, `OCCN1CCN(CC/C=C2\c3ccccc3Sc3ccc(C(F)(F)F)cc32)CC1` , give the reported activity, negative = inhibition.
Reply | 5.96

Ask | For the molecule shown here, `CC(C)(C)NC[C@H](O)c1cc(O)cc(O)c1` , give the reported activity, negative = inhibition.
Reply | -0.828

Ask | For the molecule shown here, `CN(C)CCO[C@](C)(c1ccccc1)c1ccccn1` , give the reported activity, negative = inhibition.
Reply | -3.9

Ask | For the molecule shown here, `O=C(c1ccccc1)c1ccc2n1CC[C@H]2C(=O)O` , give the reported activity, negative = inhibition.
Reply | 0.0746

Ask | For the molecule shown here, `Cc1ccccc1[C@@H](OCCN(C)C)c1ccccc1` , give the reported activity, negative = inhibition.
Reply | 5.39

Ask | For the molecule shown here, `C[C@@H](CN(C)C)CN1c2ccccc2CCc2ccccc21` , give the reported activity, negative = inhibition.
Reply | 1.59

Ask | For the molecule shown here, `C[C@@H](CCc1ccccc1)NC[C@H](O)c1ccc(O)c(C(N)=O)c1` , give the reported activity, negative = inhibition.
Reply | -0.55

Ask | For the molecule shown here, `COc1cc(=O)n(C)c2c(OC[C@@H](O)C(C)(C)O)cccc12` , give the reported activity, negative = inhibition.
Reply | -4.39

Ask | For the molecule shown here, `CC(C)COC[C@H](CN(Cc1ccccc1)c1ccccc1)N1CCCC1` , give the reported activity, negative = inhibition.
Reply | -1.52

Ask | For the molecule shown here, `CC(=O)OCC1=C(C(=O)O)N2C(=O)[C@@H](NC(=O)Cc3cccs3)[C@@H]2SC1` , give the reported activity, negative = inhibition.
Reply | -1.09

Ask | For the molecule shown here, C[C@]12CCC3c4ccc(O)cc4CCC3[C@@H]1CCC2=O (some centres not stated) , give the reported activity, negative = inhibition.
Reply | -9.06

Ask | For the molecule shown here, `C[C@@]12CCC(=O)C=C1CC[C@@H]1[C@@H]2[C@H](O)C[C@]2(C)[C@@H]1CC[C@]2(O)C(=O)CO` , give the reported activity, negative = inhibition.
Reply | -0.993

Ask | For the molecule shown here, `CC(=O)OCC1=C(C(=O)O)N2C(=O)[C@@H](NC(=O)CSc3ccncc3)[C@@H]2SC1` , give the reported activity, negative = inhibition.
Reply | 8.61

Ask | For the molecule shown here, `O=C(O)/C=C\c1ccc(O)c(O)c1` , give the reported activity, negative = inhibition.
Reply | 3.52

* * *

Experiment: AP1 Signaling Pathway (AID 357);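 note: ME-180 reporter cells stimulated with EGF at its EC50 level; % is set by controls: 0 for no effect and ±100 for the full control effect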
Settings: ME-180 (cervical carcinoma) AP-1-bla reporter, EGF-induced, beta-lactamase ratio, 5 h; at 7.69 µM (top of the series) unless noted
Inconclusive results are not listed.
EXPERIMENTAL READOUT: activity change, negative = inhibition (%)
The reply should be a number in %, with the unit left off.

Answered examples (5):
item_smiles=O=C(c1cnccn1)N1CCC2(CCCN(c3ccncc3)C2)CC1 measurement_unit=% quantitative_readout=-3.01
item_smiles=CC(C)CN1CCCC2(CCN(C(=O)c3cccc(F)c3)CC2)C1 measurement_unit=% quantitative_readout=-3.93
item_smiles=COc1ccc2[nH]cc(CCNc3ccnc(-c4cccc(C#N)c4)n3)c2c1 measurement_unit=% quantitative_readout=-12.9
item_smiles=c1cncc(-c2cc(NCc3cccs3)ncn2)c1 measurement_unit=% quantitative_readout=19
item_smiles=CNc1ncncc1-c1ccccc1C(F)(F)F measurement_unit=% quantitative_readout=2.43

Ask | For the compound shown here, `COCC(=O)N1CCC2(CCCN(c3cccc(-c4ccccc4)c3)C2)CC1` , give the reported activity change, negative = inhibition.
Reply | -22.8

Ask | For the compound shown here, `CC(=O)NCCNc1nc(-c2ccccc2C)nc2ccccc12` , give the reported activity change, negative = inhibition.
Reply | 7.34

Ask | For the compound shown here, `COc1cccc(Nc2ncc3nc(-c4cn(C)c5ccccc45)c(=O)n(C[C@H]4CCCO4)c3n2)c1` , give the reported activity change, negative = inhibition.
Reply | -25.8

Ask | For the compound shown here, `O=C(c1csnn1)N1CCC2(CCCN(c3ccncc3)C2)CC1` , give the reported activity change, negative = inhibition.
Reply | -17.6

Ask | For the compound shown here, `CC(=O)N1CCC2(CCCN(Cc3ccccc3)C2)CC1` , give the reported activity change, negative = inhibition.
Reply | -3.56

Ask | For the compound shown here, `CN1CCN(c2ncc3nc(-c4cn(C)c5ccccc45)c(=O)n(C)c3n2)CC1` , give the reported activity change, negative = inhibition.
Reply | -20.2

* * *

Biological target: Cytochrome P450 3A4 (Homo sapiens)
Test: qHTS Assay for Activators of Cytochrome P450 3A4 (AID 885); note: nearly all actives have a fitted effect of over 65% in size
Conditions: recombinant CYP3A4, Luciferin-PPXE luminescence, 60 min; series mostly up to 57.1 µM
Description: NIH Molecular Libraries Screening Centers Network [MLSCN] NIH Chemical Genomics Center [NCGC] The P450 gene superfamily is involved in the metabolism and clearance of xenobiotics. […] The luciferin is then measured by luminescence after the addition of a luciferase detection reagent. […] Inhibitors and some substrates limit the production of luciferin, and decrease measured luminescence; activators increase the production of luciferin and luminescence. […]
Activity calls are given as the source filed them. Calls come from the whole dose curve; as a rule, active = well fitted activation curve with a large enough effect; inconclusive = small, poorly fitted or top-dose-only effect; inactive = no such curve, though single readings can be large or run the other way.
Form entry, call: pick from active, inactive

As a guide, the following entries are already answered.
compound=Cc1ccccc1-c1nc(N(C)Cc2ccco2)c2ccccc2n1 target_desc="Cytochrome P450 3A4 (Homo sapiens)" group=inactive
compound=CN1CC[C@@]2(CCCN(C(=O)c3cc(C(F)(F)F)cc(C(F)(F)F)c3)C2)C1 target_desc="Cytochrome P450 3A4 (Homo sapiens)" group=inactive
compound=CS(=O)(=O)Nc1cccc(-c2cc(Nc3ccccc3)ncn2)c1 target_desc="Cytochrome P450 3A4 (Homo sapiens)" group=inactive
compound=COc1ccccc1CN1CCCC2(CCN(C(=O)c3c(C)noc3C)CC2)C1 target_desc="Cytochrome P450 3A4 (Homo sapiens)" group=inactive
compound=COCCNc1ccnc(-c2c(C)noc2C)n1 target_desc="Cytochrome P450 3A4 (Homo sapiens)" group=inactive

Ask | Please state the recorded outcome for this compound: `COc1cccc(-c2nc(N(C)Cc3ccco3)c3ccccc3n2)c1`
Reply | inactive

Ask | Please state the recorded outcome for this compound: `COc1cccc(-c2cncnc2NCc2cnc(C)cn2)c1`
Reply | inactive

Ask | Please state the recorded outcome for this compound: `FC(F)(F)c1ccccc1-c1nc(NC2CC2)c2ccccc2n1`
Reply | inactive

Ask | Please state the recorded outcome for this compound: `c1nc(NCCN2CCOCC2)c2cc(-c3ccc4c(c3)OCO4)ccc2n1`
Reply | inactive

Ask | Please state the recorded outcome for this compound: `Cc1noc(C)c1-c1nccc(NCCN2CCOCC2)n1`
Reply | inactive

* * *

Molecular target: Ubiquitin carboxyl-terminal hydrolase 1 (Homo sapiens)
Assay: Inhibitors of USP1/UAF1: Pilot qHTS (AID 504865); note: nearly all actives have a fitted effect of over 35% in size
Details: purified USP1/UAF1, Ub-rhodamine cleavage fluorescence; series mostly up to 54.9 µM
Inconclusive results are not listed. The source made the active and inactive calls. The call rests on the fitted dose curve; in most records, active means well fitted inhibition curve with a large enough effect; inconclusive means small, poorly fitted or top-dose-only effect; inactive means flat fitted curve, though single readings scatter.
Form entry, call: pick from active, inactive

compound=O=c1c(-c2ccc(F)cc2)nc2cnc(N3CCOCC3)nc2n1CCc1ccccc1 group=inactive
compound="Nc1c2ccccc2nc2ccccc12 (tested in a mixture with another compound)" group=inactive
compound=C[C@@]12CCC(=O)C=C1CC[C@@H]1[C@@H]2[C@H](O)C[C@]2(C)[C@@H]1CC[C@]2(O)C(=O)CO group=inactive
compound=COc1ccc(-c2nc3cnc(N4CCOCC4)nc3n(CCc3ccccc3)c2=O)cc1 group=inactive
compound=CC(=O)NCCNc1ncnc2ccc(-c3ccccc3Cl)cc12 group=inactive

Could you now look at the following compound, please?
Ask | Please state the recorded outcome for this compound: `CCCCCCCCCCCCCC(=O)O[C@H](CC(=O)O)C[N+](C)(C)C`
Reply | active

* * *

Biological target: Cytochrome P450 3A4 (Homo sapiens) (UniProt P08684)
Sequence (P08684 whole entry, looked up): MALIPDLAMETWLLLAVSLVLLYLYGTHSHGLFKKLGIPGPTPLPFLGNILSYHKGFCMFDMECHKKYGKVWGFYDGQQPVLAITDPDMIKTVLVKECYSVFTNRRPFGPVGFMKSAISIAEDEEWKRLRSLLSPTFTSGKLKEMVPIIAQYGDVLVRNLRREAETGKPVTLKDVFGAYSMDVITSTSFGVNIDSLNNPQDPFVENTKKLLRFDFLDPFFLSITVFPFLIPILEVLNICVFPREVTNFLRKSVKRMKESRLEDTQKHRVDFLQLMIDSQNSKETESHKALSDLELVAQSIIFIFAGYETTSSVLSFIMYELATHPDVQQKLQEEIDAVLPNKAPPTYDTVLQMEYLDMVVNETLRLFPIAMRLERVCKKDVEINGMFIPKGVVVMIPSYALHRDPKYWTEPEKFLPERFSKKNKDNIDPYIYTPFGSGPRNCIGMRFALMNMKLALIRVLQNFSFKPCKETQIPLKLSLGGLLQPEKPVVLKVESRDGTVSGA
Test: qHTS Assay for Activators of Cytochrome P450 3A4 (AID 885); note: nearly all actives have a fitted effect of over 65% in size
Settings: recombinant CYP3A4, Luciferin-PPXE luminescence, 60 min; series mostly up to 57.1 µM
The source made the active and inactive calls. The call rests on the fitted dose curve; in most records, active means well fitted activation curve with a large enough effect; inconclusive means small, poorly fitted or top-dose-only effect; inactive means no such curve, though single readings can be large or run the other way.
Form entry, call: pick from YES = active, NO = inactive

molecule=COc1cccc(-c2ccc3ncnc(N4CCOCC4)c3c2)c1 group=NO
molecule=CN(Cc1ccco1)c1ncncc1-c1cccnc1 group=NO
molecule=Cc1cccc(CNc2cc(-c3cccc(C#N)c3)ncn2)c1 group=NO
molecule=Cc1ccccc1-c1ccc2ncnc(N3CCNCC3)c2c1 group=NO
molecule=COc1cccc(Cn2c(=O)c(-c3cccc(C#N)c3)nc3cnc(Nc4ccccc4)nc32)c1 group=NO

Ask | Please state the recorded outcome for this molecule: `Cc1cnc(CNc2ccnc(-c3cccnc3)n2)cn1`
Reply | NO

Ask | Please state the recorded outcome for this molecule: `O=C(c1cccc(F)c1)N1CCC[C@@]2(CCN(c3ccccc3)C2)C1`
Reply | NO
